- subject_of_test: Induced myeloid leukemia cell differentiation protein Mcl-1 (Homo sapiens, UniProt Q07820)
- Sequence (Q07820 whole entry): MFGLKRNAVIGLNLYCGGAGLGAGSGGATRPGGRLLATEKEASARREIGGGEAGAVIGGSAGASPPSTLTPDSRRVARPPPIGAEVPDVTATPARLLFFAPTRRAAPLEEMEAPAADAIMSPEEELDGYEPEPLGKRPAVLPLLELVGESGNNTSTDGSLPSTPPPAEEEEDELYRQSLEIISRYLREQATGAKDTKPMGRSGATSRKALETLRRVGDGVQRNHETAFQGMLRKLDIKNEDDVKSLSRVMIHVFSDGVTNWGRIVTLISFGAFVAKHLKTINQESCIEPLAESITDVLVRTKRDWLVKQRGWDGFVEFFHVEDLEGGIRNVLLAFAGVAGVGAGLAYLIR
- Format: functional
Activity calls are given as the source filed them.
Give IC50 for every item shown.

Name the recorded IC50 of the molecule listed here: CC(C)CCC(CCN1CCCC1)c1ccc2c(c1)OCO2 (stereo unspecified)
6.38 µM (not active)

Determine its reported IC50: `Oc1c(Br)cc(/C=N/c2ccc3[nH]c(-c4ccccc4)nc3c2)c(O)c1Br`
1.49 µM (active)

Indicate the recorded IC50 value for this molecule: `CC(=O)c1cc(O)c2ccccc2c1O`
5.99 µM (active)

Name the recorded IC50 of the item `Oc1c(Cl)cc(Cl)cc1/C=C/c1ccc2cccc(O)c2n1` in your answer.
6.97 µM (not active)

Read off the recorded IC50 for `O=[N+]([O-])c1ccc(-c2c[nH]c(S)n2)cc1`
1.38 µM (active)

Look up and state reported IC50 for `O=C1C(=Cc2cccn2-c2ccccc2)C(=O)c2ccccc21`
4.55 µM (active)

###

- System: BJ
- assay_info: cells
- Type: functional, cell-based
- experimental_conditions: Homo sapiens
The source made the active and inactive calls.
Task for the reader: assign each of the following molecules its reported EC50.

Provide EC50 value for the following molecule: `CCCS(=O)(=O)c1c(S(=O)(=O)CCC)c2c(C)cccn2c1C(=O)N/N=C/c1cc(O)cc(O)c1`
20.2 µM (active)

Give a short answer stating reported EC50 for `C(=N\Nc1nncc2ccccc12)/c1ccccn1` .
10.8 µM (inconclusive)

Read off the recorded EC50 for `CCSc1nc2ccccc2n1C(=O)/C=C/c1ccc(OC)c(OC)c1`
> 75 µM (inconclusive)

Quickly give me recorded EC50 for `Cc1cc(-n2c(C)cc(C(=O)CCl)c2C)no1`
2.76 µM (active)

###

- subject_of_test: Apoptotic protease-activating factor 1 (Homo sapiens)
- Sequence (O14727 whole entry): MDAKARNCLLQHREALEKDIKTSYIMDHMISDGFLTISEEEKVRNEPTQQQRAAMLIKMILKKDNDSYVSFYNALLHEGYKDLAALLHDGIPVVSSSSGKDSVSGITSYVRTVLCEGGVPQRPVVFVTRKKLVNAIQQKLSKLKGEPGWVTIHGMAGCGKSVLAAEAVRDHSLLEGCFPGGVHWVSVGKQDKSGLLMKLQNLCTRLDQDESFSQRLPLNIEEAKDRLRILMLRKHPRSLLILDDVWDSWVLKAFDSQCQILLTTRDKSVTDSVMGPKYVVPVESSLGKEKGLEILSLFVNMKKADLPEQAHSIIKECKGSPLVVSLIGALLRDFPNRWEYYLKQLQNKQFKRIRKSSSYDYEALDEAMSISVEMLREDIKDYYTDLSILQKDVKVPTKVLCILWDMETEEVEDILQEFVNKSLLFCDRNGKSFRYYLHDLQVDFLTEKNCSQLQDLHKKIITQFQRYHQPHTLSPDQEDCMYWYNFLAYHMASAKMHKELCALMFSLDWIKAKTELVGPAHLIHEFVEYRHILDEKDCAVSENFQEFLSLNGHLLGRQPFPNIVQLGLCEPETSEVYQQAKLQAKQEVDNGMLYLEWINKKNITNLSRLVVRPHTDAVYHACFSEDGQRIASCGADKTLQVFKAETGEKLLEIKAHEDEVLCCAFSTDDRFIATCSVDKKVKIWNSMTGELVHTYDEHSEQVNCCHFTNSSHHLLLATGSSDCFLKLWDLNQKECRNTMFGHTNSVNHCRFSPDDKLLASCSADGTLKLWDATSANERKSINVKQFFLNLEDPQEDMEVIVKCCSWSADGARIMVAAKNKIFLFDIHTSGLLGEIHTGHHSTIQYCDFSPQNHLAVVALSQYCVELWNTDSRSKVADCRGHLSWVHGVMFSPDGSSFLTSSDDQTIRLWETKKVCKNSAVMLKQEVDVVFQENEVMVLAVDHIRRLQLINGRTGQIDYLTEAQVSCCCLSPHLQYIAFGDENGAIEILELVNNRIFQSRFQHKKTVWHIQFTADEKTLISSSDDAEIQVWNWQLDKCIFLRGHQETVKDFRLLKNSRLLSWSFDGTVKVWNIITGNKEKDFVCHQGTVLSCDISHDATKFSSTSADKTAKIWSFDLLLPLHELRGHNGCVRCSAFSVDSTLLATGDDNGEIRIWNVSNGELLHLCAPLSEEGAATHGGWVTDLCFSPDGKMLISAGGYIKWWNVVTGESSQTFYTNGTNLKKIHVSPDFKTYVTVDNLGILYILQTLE
- Format: functional
Activity calls are given as the source filed them.
recorded_endpoint: IC50

Give IC50 for COC(=O)CCC(=O)OC1(C)C(=O)C2=CN(C3CC3)C(c3ccc(OC)cc3)=CC2=C(Br)C1=O (centres undefined)
22 µM (active)

Tell us which IC50 value is on record for `CC(C)n1cnc2c(NCc3ccccc3)cc(N[C@H](C)CO)cc21`
1.22 µM (active)

Note IC50 for the compound shown: `CCCCCCCCCCOC(=O)C[n+]1c(COc2ccccc2OC)n(C)c2ccccc21`
14.3 µM (active)

Return IC50 (reported value) for this compound: `CCOC(=O)c1cnn(-c2c(Cc3ccccc3)c(C)nc3c(-c4ccccc4)c(C)nn23)c1N`
4 µM (active)

###

- subject_of_test: Nonstructural protein 1 (Influenza A virus, UniProt Q194T2)
- Sequence (Q194T2 whole entry): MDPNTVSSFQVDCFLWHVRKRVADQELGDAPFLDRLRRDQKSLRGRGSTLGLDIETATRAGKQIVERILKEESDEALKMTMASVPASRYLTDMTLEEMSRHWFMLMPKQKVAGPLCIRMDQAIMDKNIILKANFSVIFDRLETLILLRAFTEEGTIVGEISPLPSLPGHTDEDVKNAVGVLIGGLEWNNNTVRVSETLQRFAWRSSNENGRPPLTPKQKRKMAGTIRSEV
- Assay type: functional, Influenza A virus (A/California/07/2009(H1N1))
Activity calls are given as the source filed them.
recorded_endpoint: IC50

Using the record for `Cc1ccc(S(=O)(=O)NC2=C(N3CCN(Cc4ccccc4)CC3)C(=O)c3ccccc3C2=O)cc1` , state its measured IC50.
22.4 µM (active)

Look up and report measured IC50 for this entry: `O=c1ccc2c(-c3ccccc3S(=O)(=O)O)c3ccc(O)c(O)c3oc-2c1O`
13.5 µM (active)

Give the value of IC50 reported for the following: `CCN(CC)CCCNC(=O)c1cc(-c2ccccc2)c(N2CCCCC2)s1`
88.3 µM (active)

Please give the documented IC50 of `Cc1ccc2[nH]c3nc(NN)nnc3c2c1`
13.5 µM (active)

Name the recorded IC50 of the item `CCOc1ccc2c(c1)-c1c(ssc1=S)C(C)(C)N2C` in your answer.
12.8 µM (active)

Check the records and state IC50 for `CC(C)n1cnc2c(NCc3ccccc3)cc(N[C@H](C)CO)cc21`
61.9 µM (active)

# return recorded IC50 for entry `COc1ccc2[nH]c(C)c(CCN(Cc3cccs3)C(S)=Nc3ccccc3)c2c1`
> 100 µM (active)

# return recorded IC50 for entry `Cc1cc(C)cc(-n2c(C)cc(C(=S)N3CCOCC3)c2C)c1`
95.6 µM (active)

Please give the documented IC50 of `C(=N\Nc1nncc2ccccc12)/c1ccccn1`
4.45 µM (active)

Identify measured IC50 corresponding to CCC(=O)NC(c1cccs1)c1cc([N+](=O)[O-])c2cccnc2c1O (stereo not given)
6.66 µM (active)

###

- subject_of_test: Short transient receptor potential channel 4 (Mus musculus, UniProt Q9QUQ5)
- Sequence (Q9QUQ5 whole entry): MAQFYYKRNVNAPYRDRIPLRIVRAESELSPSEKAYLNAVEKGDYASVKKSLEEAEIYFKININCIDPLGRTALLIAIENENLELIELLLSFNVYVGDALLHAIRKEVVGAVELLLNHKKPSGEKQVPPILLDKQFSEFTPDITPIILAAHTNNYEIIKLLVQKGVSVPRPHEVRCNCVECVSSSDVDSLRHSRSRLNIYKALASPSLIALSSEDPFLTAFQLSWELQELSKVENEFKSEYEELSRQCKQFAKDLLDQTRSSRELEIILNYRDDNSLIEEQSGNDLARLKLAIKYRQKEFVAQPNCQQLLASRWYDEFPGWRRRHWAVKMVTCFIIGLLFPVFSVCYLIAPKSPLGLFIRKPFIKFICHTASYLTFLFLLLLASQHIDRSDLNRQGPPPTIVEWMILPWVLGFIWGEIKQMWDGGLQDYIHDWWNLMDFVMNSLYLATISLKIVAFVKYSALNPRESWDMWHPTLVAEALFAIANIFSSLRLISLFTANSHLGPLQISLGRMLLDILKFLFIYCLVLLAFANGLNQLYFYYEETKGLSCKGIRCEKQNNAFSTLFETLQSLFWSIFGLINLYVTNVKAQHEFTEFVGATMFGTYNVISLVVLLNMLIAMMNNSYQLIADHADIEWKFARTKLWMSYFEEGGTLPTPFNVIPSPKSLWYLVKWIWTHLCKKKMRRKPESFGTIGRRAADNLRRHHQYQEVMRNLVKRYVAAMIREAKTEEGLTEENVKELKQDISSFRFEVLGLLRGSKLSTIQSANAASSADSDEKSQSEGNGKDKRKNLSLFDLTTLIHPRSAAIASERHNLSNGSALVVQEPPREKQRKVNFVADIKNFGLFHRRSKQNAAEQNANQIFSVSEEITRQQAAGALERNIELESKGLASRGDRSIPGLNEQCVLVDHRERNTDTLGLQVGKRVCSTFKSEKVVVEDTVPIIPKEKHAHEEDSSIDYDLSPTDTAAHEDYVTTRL
- assay_info: mouse TRPC4 channel inhibitors, dose response, cell-based, HEK293 TRPC4/mu-opioid, Fluo-4 calcium (AID 434942);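 further: potency of inhibitors blocking the TRPC4 calcium response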
- Assay type: functional
Calls of active or inactive are those of the source.
recorded_endpoint: EC50

Determine its reported EC50: Cn1cc(CNCC2CCCO2)c(-c2ccc(Oc3ccccc3)cc2)n1 (stereo unspecified)
3350 nM (active)

For `C=CCn1cnc2scc(-c3ccc(CC)cc3)c2c1=O` , write its EC50.
5960 nM (active)

Hello, please tell me recorded EC50 for this one: `Cc1cc(N2CCCCCC2)nc2ccccc12`
1330 nM (active)

Give EC50 for the following molecule: `O=C(O)c1cc(NN=C2c3ccccc3-c3ccccc32)ccc1Cl`
2990 nM (active)

Note down EC50 recorded for N#Cc1c(N2CCCCC2)nc(N)c2c(N)nc3c(c12)CC(c1ccccc1)O3 (stereo unspecified)
2990 nM (active)

Indicate its recorded EC50; the molecule in question is `CCCCc1nc(SCCOC)c2c(=O)n(C)c(=O)n(C)c2n1`
1500 nM (active)

###

- subject_of_test: Protein skinhead-1 (Caenorhabditis elegans)
- Sequence (P34707 whole entry): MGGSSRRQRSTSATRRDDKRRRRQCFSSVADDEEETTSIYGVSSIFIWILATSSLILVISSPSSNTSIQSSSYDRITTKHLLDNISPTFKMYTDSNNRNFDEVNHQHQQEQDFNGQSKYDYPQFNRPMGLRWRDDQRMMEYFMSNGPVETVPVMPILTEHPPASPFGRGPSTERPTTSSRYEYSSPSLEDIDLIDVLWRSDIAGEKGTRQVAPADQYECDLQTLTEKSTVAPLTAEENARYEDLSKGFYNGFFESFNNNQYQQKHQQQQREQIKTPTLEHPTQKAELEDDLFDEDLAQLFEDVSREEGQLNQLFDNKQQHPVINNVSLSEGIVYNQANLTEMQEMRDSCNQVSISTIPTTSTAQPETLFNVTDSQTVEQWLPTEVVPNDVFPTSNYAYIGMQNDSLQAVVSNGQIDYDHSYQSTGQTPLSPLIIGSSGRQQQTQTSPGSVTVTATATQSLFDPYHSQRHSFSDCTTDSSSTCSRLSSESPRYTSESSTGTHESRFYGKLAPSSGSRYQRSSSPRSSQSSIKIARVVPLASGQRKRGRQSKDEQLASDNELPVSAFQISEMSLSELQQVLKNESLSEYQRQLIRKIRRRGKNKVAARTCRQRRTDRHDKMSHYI
- Assay type: functional
Active and inactive are the calls of the source.
Hello, when you answer, please use one of the following outcomes: active, inactive

// outcome(item) with item = `CCc1nc2c(OCc3ccc(C(F)(F)F)cc3)cccn2c1N(C)C(=O)c1ccncc1`
active

What did this assay record as the result for `O=[N+]([O-])c1ccc(COc2ccc(CN3CCCC3)cc2)cc1` ?
active

Dear all, I need the recorded test outcome for Cc1noc(C)c1S(=O)(=O)N1CCCC(C(=O)NCCc2ccc(Cl)cc2)C1 (centres undefined) , thank you.
inactive

Assay result, entry O=C1CCC(C(=O)OCC(=O)N2N=C3/C(=C\c4ccccc4)CCCC3C2c2ccccc2)N1 (centres undefined) — outcome?
inactive

Recorded test call requested for `Clc1ccc(-c2cn3cc(Br)ccc3n2)cc1Cl`
inactive

In this assay, the call recorded for CC(C)C(CCNCc1ccccn1)c1ccc(Cl)cc1 (centres undefined) was what?
inactive

Name the outcome recorded for `Cc1ccc(OCc2ccc(C(=O)Nc3nccs3)o2)cc1C` in the assay.
inactive

I'd appreciate the recorded outcome for `O=C(Nc1csc(Cl)c1)c1ccccc1` from this test.
inactive

Kindly provide the recorded test outcome for the following molecule: `Cc1ccc2[nH]c(C)c(/C=C3/C(=N)N4N=C(CC(=O)N5CCOCC5)SC4=NC3=O)c2c1`
inactive

Just curious, what result did CN(C)C(CNC(=O)CCc1nc2cc(Cl)ccc2n(Cc2ccccc2)c1=O)c1ccccc1 (centres undefined) get here?
inactive

Please state the recorded outcome for this molecule: `O=C(Nc1nccs1)c1ccc(-c2ccc(Cl)cc2)o1`
inactive

Tell me the recorded outcome of this test for `COc1c(C(=O)Nc2nccs2)ccc2ccccc12` .
active

Recorded call for `CC(C)c1ccc(C(=O)Nc2ccc(CN3CCOCC3)cc2)cc1` ?
active

# lookup: test call for `COc1cc(SC)ccc1C(=O)Nc1nccs1`
inactive

###

Would you mind telling me the reported EC50 of each entry?
- subject_of_test: Heat shock factor protein 1 (Mus musculus)
- Sequence (P38532 whole entry): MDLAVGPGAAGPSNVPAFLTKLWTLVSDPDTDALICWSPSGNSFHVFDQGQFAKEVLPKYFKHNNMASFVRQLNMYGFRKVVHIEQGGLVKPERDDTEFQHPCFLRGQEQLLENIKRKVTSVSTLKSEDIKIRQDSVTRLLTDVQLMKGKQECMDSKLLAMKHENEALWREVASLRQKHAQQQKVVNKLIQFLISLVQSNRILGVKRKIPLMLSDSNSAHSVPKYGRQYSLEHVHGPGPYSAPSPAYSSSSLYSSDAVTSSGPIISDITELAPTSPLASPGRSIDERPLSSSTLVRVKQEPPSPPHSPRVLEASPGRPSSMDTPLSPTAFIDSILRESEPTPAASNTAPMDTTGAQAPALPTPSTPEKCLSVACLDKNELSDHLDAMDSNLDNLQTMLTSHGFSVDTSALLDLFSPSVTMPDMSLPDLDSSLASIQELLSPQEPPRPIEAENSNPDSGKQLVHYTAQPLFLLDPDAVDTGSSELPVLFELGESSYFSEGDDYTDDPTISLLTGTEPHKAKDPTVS
- assay_info: inhibition of MG132-induced HSE-luciferase signal, confirmation, cell-based, NIH3T3, luminescence, dose retest (AID 2382);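 further: NIH3T3 fibroblasts with HSF1-driven luciferase reporter stressed by proteasome inhibitor MG132; luminescence from HSF1-driven luciferase expression after 8 hours of MG132 stress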
- Type: functional
The source made the active and inactive calls.

Return reported EC50 for target or system Heat shock factor protein 1 (Mus musculus), item `CCOc1ccc(CC(=O)N2CCC3(CC2)NCCc2[nH]cnc23)cc1` .
> 195 µM (not active)

For Heat shock factor protein 1 (Mus musculus), give EC50 of the listed molecule: `Cc1ncc([N+](=O)[O-])n1CC(=O)Nc1ccc(F)cc1`
12.3 µM (active)

// fetch EC50 for COc1ccc(NC2=Nc3ccccc3N3C2=Nc2c(c(C)nn2-c2ccc(C)cc2)C3c2cccnc2)cc1 (stereo not given) ; system: Heat shock factor protein 1 (Mus musculus)
> 195 µM (not active)

Tell me EC50 of `Cc1ccc(OCC(=O)NCCNC(=O)c2ccco2)cc1C` when tested on Heat shock factor protein 1 (Mus musculus).
> 195 µM (not active)

Check Heat shock factor protein 1 (Mus musculus) data and give EC50 for `Cc1ccc(C(=O)NCC(=O)NCC(=O)OCC(=O)c2ccc(F)cc2)cc1` .
> 195 µM (not active)

GET EC50 | system: Heat shock factor protein 1 (Mus musculus) | item: Cc1oc(-c2cc3c(cc2Cl)OCO3)nc1CN1CCCC1c1ccc(F)cc1 (stereo not given)
> 195 µM (not active)

// fetch EC50; item: `COc1ccc(S(=O)(=O)N2CCCCCC2)cc1C(=O)OCC(=O)NC(C)(C)C` ; system: Heat shock factor protein 1 (Mus musculus)
> 195 µM (not active)

Retrieve EC50 on Heat shock factor protein 1 (Mus musculus); query COc1ccc(N2C(=O)c3ccccc3NC2c2ccc(OC)c(Cn3cc([N+](=O)[O-])cn3)c2)cc1 (stereo not given)
> 195 µM (not active)

Report value: EC50, system: Heat shock factor protein 1 (Mus musculus), molecule: `Cc1oc2c(c1C(=O)NCc1cccnc1)C(=O)c1ccccc1C2=O`
0.304 µM (active)

Answer briefly: EC50 recorded on Heat shock factor protein 1 (Mus musculus) for `O=S(=O)(Nc1ccc(O)c2ccccc12)c1ccc(OC(F)(F)F)cc1`
> 195 µM (not active)
